target.or.test.system: FGFR1 (UniProt P11362)
Sequence (P11362 whole entry, looked up): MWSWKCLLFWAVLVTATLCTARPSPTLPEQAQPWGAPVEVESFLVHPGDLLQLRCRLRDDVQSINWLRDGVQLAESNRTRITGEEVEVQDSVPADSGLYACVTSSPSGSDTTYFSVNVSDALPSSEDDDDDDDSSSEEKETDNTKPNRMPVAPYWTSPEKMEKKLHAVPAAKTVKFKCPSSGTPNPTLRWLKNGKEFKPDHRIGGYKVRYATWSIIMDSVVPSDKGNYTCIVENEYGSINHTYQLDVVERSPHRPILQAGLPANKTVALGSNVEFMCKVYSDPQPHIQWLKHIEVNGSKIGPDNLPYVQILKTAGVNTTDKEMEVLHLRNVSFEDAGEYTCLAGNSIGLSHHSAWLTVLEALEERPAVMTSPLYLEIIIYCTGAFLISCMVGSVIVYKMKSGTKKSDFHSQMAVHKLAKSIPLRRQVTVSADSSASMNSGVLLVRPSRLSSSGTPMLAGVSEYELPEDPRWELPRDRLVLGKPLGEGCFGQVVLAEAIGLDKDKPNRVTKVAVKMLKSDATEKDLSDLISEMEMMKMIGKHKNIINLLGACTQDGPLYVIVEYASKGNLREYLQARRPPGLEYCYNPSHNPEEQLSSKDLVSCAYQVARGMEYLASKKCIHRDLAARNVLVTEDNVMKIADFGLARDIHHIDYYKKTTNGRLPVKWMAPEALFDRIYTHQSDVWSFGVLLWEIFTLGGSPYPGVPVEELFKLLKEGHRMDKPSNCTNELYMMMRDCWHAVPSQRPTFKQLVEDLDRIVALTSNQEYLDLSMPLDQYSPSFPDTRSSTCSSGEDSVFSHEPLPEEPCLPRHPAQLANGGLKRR
assay.name: phosphorylation enrichment, bacterial display (enrichment ratio); higher = better substrate or ligand; peptides without Tyr show the background
phosphorylation enrichment values, listed per item
Reply with the value as a number alone.

In [3]: df
Out[3]:
                          seq_string    val
0  KNNDGNIDFAE [MCFD2_Y135_Y135N_YF]  0.447
1         RLLVVYSWTQR [HBB_Y36_P37S]  0.783
2   PNQRRYVFFFS [PTEN_Y174_S170N_YF]  0.731
3           STGRSYAGVAV [KLHL3_Y577]  0.482
4           LMVFEYMRHGD [NTRK1_Y591]    0.5

[ask] Answer with reported phosphorylation enrichment of RPDSPYSRLHD [DOK2_Y271_P274L]
[reply] 0.552

[ask] Answer with reported phosphorylation enrichment of LTFDEYRNISQ [ANXA3_Y216]
[reply] 1.23

[ask] Answer with reported phosphorylation enrichment of AEVDTYCRHNF [HLA-DRB1_Y107_A103E_YF]
[reply] 0.532

[ask] Answer with reported phosphorylation enrichment of PTTKTYFPHFF [HBA1_Y43_D48Y_YF]
[reply] 0.824

[ask] Answer with reported phosphorylation enrichment of KLIMEYLPYGS [JAK2_Y931]
[reply] 0.543

###

target.or.test.system: FGFR3 (UniProt P22607)
Sequence (P22607 whole entry, looked up): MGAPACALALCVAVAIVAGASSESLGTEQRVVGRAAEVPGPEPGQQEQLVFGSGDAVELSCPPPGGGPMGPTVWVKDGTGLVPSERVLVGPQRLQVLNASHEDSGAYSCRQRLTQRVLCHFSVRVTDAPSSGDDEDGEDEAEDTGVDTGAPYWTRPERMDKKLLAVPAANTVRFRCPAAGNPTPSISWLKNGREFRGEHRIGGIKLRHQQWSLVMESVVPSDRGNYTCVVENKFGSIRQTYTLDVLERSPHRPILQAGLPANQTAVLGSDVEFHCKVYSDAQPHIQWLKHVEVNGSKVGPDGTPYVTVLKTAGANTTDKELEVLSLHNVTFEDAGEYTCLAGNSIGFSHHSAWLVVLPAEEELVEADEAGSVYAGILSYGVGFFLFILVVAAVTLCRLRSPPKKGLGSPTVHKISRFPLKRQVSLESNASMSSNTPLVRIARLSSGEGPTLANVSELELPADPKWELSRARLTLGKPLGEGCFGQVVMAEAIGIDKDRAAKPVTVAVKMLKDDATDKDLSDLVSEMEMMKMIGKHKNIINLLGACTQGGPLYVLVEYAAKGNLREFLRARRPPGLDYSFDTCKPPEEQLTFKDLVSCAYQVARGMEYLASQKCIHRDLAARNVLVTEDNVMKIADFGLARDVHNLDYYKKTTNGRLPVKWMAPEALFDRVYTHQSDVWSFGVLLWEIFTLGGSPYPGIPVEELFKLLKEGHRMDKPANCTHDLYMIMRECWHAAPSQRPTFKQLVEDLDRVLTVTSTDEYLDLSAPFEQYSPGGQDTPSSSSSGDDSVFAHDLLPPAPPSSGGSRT
assay.name: phosphorylation enrichment, bacterial display (enrichment ratio); higher = better substrate or ligand; peptides without Tyr show the background
parameter.measured: phosphorylation enrichment
Reply with the value as a number alone.

>>> print(df.to_string())
                         seq_string    val
0        SSQAHYRLSAF [ADAMTS9_Y100]  0.584
1   LERYIYNRQEF [HLA-DPB1_Y59_E62Q]  0.605
2  AIIGIYNLRDD [CDH23_Y2949_I2950N]  0.599
3         ARLEFYENEKK [IRS1_Y47_YF]  0.604
4   VVHGSYDEIEG [SEC24A_Y263_S261G]  0.591

[ask] Answer with reported phosphorylation enrichment of YSQNIYIQNRN [PKP2_Y631]
[reply] 0.483

[ask] Answer with reported phosphorylation enrichment of ASNNPYFRDQA [RPGRIP1_Y846]
[reply] 0.656

[ask] Answer with reported phosphorylation enrichment of GQKVAYGGTED [ALDH3A1_Y305_G309E]
[reply] 0.63

[ask] Answer with reported phosphorylation enrichment of FADPFYDFEIE [ZC3H18_Y372_YF]
[reply] 0.708

[ask] Answer with reported phosphorylation enrichment of MPLDQYSPSFP [FGFR1_Y776]
[reply] 0.79

[ask] Answer with reported phosphorylation enrichment of SLRAHYDTPRS [DOK7_Y405]
[reply] 0.351

###

target.or.test.system: Grb2 SH2 (UniProt P62993)
Sequence (P62993 whole entry, looked up): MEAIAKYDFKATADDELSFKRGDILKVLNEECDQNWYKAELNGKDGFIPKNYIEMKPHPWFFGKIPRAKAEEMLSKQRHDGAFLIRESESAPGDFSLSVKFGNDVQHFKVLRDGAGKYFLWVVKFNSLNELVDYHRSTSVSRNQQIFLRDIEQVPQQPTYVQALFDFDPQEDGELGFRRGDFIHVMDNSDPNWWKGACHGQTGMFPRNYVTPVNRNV
assay.name: SH2 binding enrichment of the phosphorylated peptide, bacterial display (enrichment ratio); higher = better substrate or ligand; peptides without Tyr show the background
SH2 binding enrichment values, listed per item

>>> df
                         seq_string      target_or_test_system    val
0    RREWYYEVIIA [BACE1_Y260_V265A]  Grb2 SH2 (UniProt P62993)  0.673
1    EGLRRYLENGK [HLA-A_Y195_W191G]  Grb2 SH2 (UniProt P62993)  0.584
2  AIIGIYNLRDD [CDH23_Y2949_I2950N]  Grb2 SH2 (UniProt P62993)   1.14
3          SNKLTYGTMVF [ACOX1_Y275]  Grb2 SH2 (UniProt P62993)  0.925

[ask] Answer with reported SH2 binding enrichment of CTTIDYNYMCN [TP53_Y234_H233D]
[reply] 0.768

[ask] Answer with reported SH2 binding enrichment of PSQRHYVYYYS [PTEN_Y174_R173H]
[reply] 1.2

[ask] Answer with reported SH2 binding enrichment of YGGRDYSLDEF [MYOF_Y1705]
[reply] 0.765

###

target.or.test.system: EPHB2 (UniProt P29323)
Sequence (P29323 whole entry, looked up): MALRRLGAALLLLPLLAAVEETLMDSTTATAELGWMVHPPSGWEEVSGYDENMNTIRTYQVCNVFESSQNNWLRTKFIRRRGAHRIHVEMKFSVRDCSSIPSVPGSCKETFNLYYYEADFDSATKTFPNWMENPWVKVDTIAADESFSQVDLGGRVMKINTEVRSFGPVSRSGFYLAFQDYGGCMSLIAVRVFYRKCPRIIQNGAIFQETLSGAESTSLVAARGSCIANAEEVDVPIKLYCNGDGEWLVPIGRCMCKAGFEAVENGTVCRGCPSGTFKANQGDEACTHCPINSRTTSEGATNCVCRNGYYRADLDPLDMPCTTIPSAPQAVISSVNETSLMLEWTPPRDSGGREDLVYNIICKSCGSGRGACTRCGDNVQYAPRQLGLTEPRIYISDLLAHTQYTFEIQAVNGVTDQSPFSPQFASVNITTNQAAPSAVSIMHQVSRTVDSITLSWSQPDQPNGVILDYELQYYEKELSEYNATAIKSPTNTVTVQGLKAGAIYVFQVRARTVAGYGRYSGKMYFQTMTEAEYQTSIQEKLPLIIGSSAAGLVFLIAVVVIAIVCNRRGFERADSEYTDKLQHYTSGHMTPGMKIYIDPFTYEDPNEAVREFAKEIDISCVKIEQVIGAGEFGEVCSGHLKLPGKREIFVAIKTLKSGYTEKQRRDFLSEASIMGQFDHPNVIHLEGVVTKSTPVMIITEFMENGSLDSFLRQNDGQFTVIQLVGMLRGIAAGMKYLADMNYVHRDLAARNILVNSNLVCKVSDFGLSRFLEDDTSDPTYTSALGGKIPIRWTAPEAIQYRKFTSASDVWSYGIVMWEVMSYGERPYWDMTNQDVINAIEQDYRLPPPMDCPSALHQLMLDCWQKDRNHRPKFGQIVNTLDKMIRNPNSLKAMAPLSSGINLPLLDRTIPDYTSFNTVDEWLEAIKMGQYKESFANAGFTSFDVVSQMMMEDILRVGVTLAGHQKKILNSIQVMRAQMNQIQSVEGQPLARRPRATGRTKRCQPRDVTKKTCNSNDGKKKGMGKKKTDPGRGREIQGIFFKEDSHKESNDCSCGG
assay.name: phosphorylation enrichment, bacterial display (enrichment ratio); higher = better substrate or ligand; peptides without Tyr show the background
Each entry gets rule not met if its phosphorylation enrichment stays under 0.5, and rule met if its phosphorylation enrichment is 0.5 or above.

Known results for sequences:
>>> df
                        seq_string   target_or_test_system   label_value
0      LAAAKYKLNVD [SMARCA2_Y1190]  EPHB2 (UniProt P29323)  rule not met
1      PEVSGYCHYAD [TG_Y234_C237Y]  EPHB2 (UniProt P29323)      rule met
2  VTAALYGCLFE [BTD_Y536_R538C_YF]  EPHB2 (UniProt P29323)      rule met

[ask] I'd appreciate it if you could say whether ETGNLYIAKVE [CNTN4_Y180] has phosphorylation enrichment at least equal to 0.5.
[reply] rule met

[ask] I'd appreciate it if you could say whether EGELRYMHSRV [ABCD1_Y281_K276E] has phosphorylation enrichment at least equal to 0.5.
[reply] rule not met

[ask] I'd appreciate it if you could say whether LPEENYQVLRF [ARHGAP1_Y365] has phosphorylation enrichment at least equal to 0.5.
[reply] rule met

[ask] I'd appreciate it if you could say whether KLIMEYLPYGS [JAK2_Y931] has phosphorylation enrichment at least equal to 0.5.
[reply] rule met

[ask] I'd appreciate it if you could say whether TTKGSYSLYVR [HCK_Y180_S183Y] has phosphorylation enrichment at least equal to 0.5.
[reply] rule met

[ask] I'd appreciate it if you could say whether EEVPLYESATT [DCC_Y809_G805E] has phosphorylation enrichment at least equal to 0.5.
[reply] rule met

[ask] I'd appreciate it if you could say whether PHIKTYMRPSP [TDP1_Y497] has phosphorylation enrichment at least equal to 0.5.
[reply] rule met

[ask] I'd appreciate it if you could say whether HFNLTYRILSF [MMP23B_Y95] has phosphorylation enrichment at least equal to 0.5.
[reply] rule met

[ask] I'd appreciate it if you could say whether EPVSDYINADI [PTPN11_Y304_N308D] has phosphorylation enrichment at least equal to 0.5.
[reply] rule met

[ask] I'd appreciate it if you could say whether TAGEPYHDIRF [BAP1_Y223] has phosphorylation enrichment at least equal to 0.5.
[reply] rule not met

###

target.or.test.system: FGFR3 (UniProt P22607)
assay.name: phosphorylation enrichment, bacterial display (enrichment ratio); higher = better substrate or ligand; peptides without Tyr show the background
parameter.measured: phosphorylation enrichment

Past entries and their recorded results:
                       seq_string    val
0         AKAEIYEMRPL [COX10_Y97]  0.672
1   CTNIHYNYMCN [TP53_Y234_T231N]   0.62
2  LFSLGYHQSLW [GANAB_Y396_R400L]  0.786
3        THQNSYQPGRK [CEFIP_Y210]   0.34

[ask] Answer with reported phosphorylation enrichment of PSQRPYVYYYS [PTEN_Y174_R173P]
[reply] 3.08

###

target.or.test.system: FGFR1 (UniProt P11362)
assay.name: phosphorylation enrichment, bacterial display (enrichment ratio); higher = better substrate or ligand; peptides without Tyr show the background
Each entry gets class 0 if its phosphorylation enrichment stays under 0.5, and class 1 if its phosphorylation enrichment is 0.5 or above.

[ask] I'd appreciate it if you could say whether VRVQLYDPDFM [CYP4A22_Y100_Y104F] has phosphorylation enrichment at least equal to 0.5.
[reply] class 0

[ask] I'd appreciate it if you could say whether IQKWEYVPLGP [FAH_Y244] has phosphorylation enrichment at least equal to 0.5.
[reply] class 1

[ask] I'd appreciate it if you could say whether TKAEKYVNKAK [PLCG1_Y991] has phosphorylation enrichment at least equal to 0.5.
[reply] class 0

[ask] I'd appreciate it if you could say whether PSQRHYVFFFS [PTEN_Y174_R173H_YF] has phosphorylation enrichment at least equal to 0.5.
[reply] class 1

[ask] I'd appreciate it if you could say whether VFPATYHPDHW [EFCAB12_Y544_YF] has phosphorylation enrichment at least equal to 0.5.
[reply] class 0

###

Tested on: c-Abl (mouse)
assay.name: phosphorylation enrichment, bacterial display (enrichment ratio); higher = better substrate or ligand; peptides without Tyr show the background
parameter.measured: phosphorylation enrichment
Reply with the value as a number alone.

               seq_string  target_or_test_system    val
0  VKPHRYRPGTV [H3-5_Y41]          c-Abl (mouse)  0.613
1  RSDEDYLYREE [POR_Y573]          c-Abl (mouse)  0.813

[ask] Answer with reported phosphorylation enrichment of SAGSSYSISVI [PAX5_Y179_G183V]
[reply] 0.807
